B1: scFv; the commonest letter at each place (parent)
chain 1: EVKLDETGGGLVQPGRPMKLSCVASGFTFSDYWMNWVRQSPEKGLEWVAQIRNKPYNYETYYSDSVKGRFTISRDDSKSSVYLQMNNLRVEDMGIYYCTGSYYGMDYWGQGTSVTVS
chain 2: DVVMTQTPLSLPVSLGDQASISCRSSQSLVHSNGNTYLRWYLQKPGQSPKVLIYKVSNRFSGVPDRFSGSGSGTDFTLKISRVEAEDLGVYFCSQSTHVPWTFGGGTKLEIK

Variants of: B1
Assay Details: Kd (Tite-Seq)
Details: with fluorescein; format: scFv 4-4-20, heavy + light
pKd: −log10 of the molar value.

{"Variant Descriptor": "chain 1 S30N", "pKd": 8.91}
{"Variant Descriptor": "chain 1 S101D Y103K", "pKd": "≤ 5.00"}
{"Variant Descriptor": "chain 1 G104Q G109Q", "pKd": "≤ 5.00"}
{"Variant Descriptor": "chain 1 S101N M105P", "pKd": "≤ 5.00"}
{"Variant Descriptor": "chain 1 F29L N35T", "pKd": "≤ 5.00"}
{"Variant Descriptor": "chain 1 Y32Q W33N", "pKd": "≤ 5.00"}
{"Variant Descriptor": "chain 1 W33E M34W", "pKd": "≤ 5.00"}
{"Variant Descriptor": "chain 1 S101V Y103F D106V", "pKd": "≤ 5.00"}
{"Variant Descriptor": "chain 1 D106M", "pKd": "≤ 5.00"}
{"Variant Descriptor": "chain 1 D31T M34E", "pKd": 7.16}
{"Variant Descriptor": "chain 1 M105V Y107A", "pKd": "≤ 5.00"}
{"Variant Descriptor": "chain 1 T28K S30K M34Y", "pKd": 8.24}
{"Variant Descriptor": "chain 1 M34K W36M", "pKd": "≤ 5.00"}
{"Variant Descriptor": "chain 1 Y102A Y103K", "pKd": 5.38}
{"Variant Descriptor": "chain 1 T28W W33F W36P", "pKd": "≤ 5.00"}
{"Variant Descriptor": "chain 1 G104T G109D", "pKd": "≤ 5.00"}
{"Variant Descriptor": "chain 1 F29P V37H", "pKd": "≤ 5.00"}
{"Variant Descriptor": "chain 1 M34D N35Q", "pKd": "≤ 5.00"}
{"Variant Descriptor": "chain 1 S101I Y102T", "pKd": "≤ 5.00"}
{"Variant Descriptor": "chain 1 W36K V37N", "pKd": 7.23}
{"Variant Descriptor": "chain 1 T28L D31L", "pKd": 7.66}
{"Variant Descriptor": "chain 1 D31G W33Q", "pKd": "≤ 5.00"}
{"Variant Descriptor": "chain 1 T28C F29P", "pKd": "≤ 5.00"}
{"Variant Descriptor": "chain 1 D31H Y32S", "pKd": 5.07}
{"Variant Descriptor": "chain 1 T28K W33D", "pKd": "≤ 5.00"}
{"Variant Descriptor": "chain 1 S101Q D106N", "pKd": "≤ 5.00"}
{"Variant Descriptor": "chain 1 D31C M34P", "pKd": "≤ 5.00"}
{"Variant Descriptor": "chain 1 W108L", "pKd": "≥ 9.50"}
{"Variant Descriptor": "chain 1 Y32P W36K", "pKd": "≤ 5.00"}
{"Variant Descriptor": "chain 1 Y103F", "pKd": 9.12}
{"Variant Descriptor": "chain 1 G100R Y103D W108G", "pKd": "≤ 5.00"}
{"Variant Descriptor": "chain 1 W33D", "pKd": "≤ 5.00"}
{"Variant Descriptor": "chain 1 Y32S", "pKd": 6.81}
{"Variant Descriptor": "chain 1 S101W G109T", "pKd": "≤ 5.00"}
{"Variant Descriptor": "chain 1 S30F Y32H", "pKd": 7.29}
{"Variant Descriptor": "chain 1 Y102G Y103D", "pKd": "≤ 5.00"}
{"Variant Descriptor": "chain 1 M34C V37H", "pKd": "≤ 5.00"}
{"Variant Descriptor": "chain 1 W33A V37N", "pKd": "≤ 5.00"}
{"Variant Descriptor": "chain 1 W36D V37H", "pKd": "≤ 5.00"}
{"Variant Descriptor": "chain 1 M34G", "pKd": 5.91}
{"Variant Descriptor": "chain 1 Y32N", "pKd": "≤ 5.00"}
{"Variant Descriptor": "chain 1 S30H", "pKd": 8.50}
{"Variant Descriptor": "chain 1 M34N", "pKd": 5.64}
{"Variant Descriptor": "chain 1 G104T Y107I W108Y", "pKd": "≤ 5.00"}
{"Variant Descriptor": "chain 1 N35C V37M", "pKd": "≤ 5.00"}
{"Variant Descriptor": "chain 1 M105I D106Y", "pKd": "≤ 5.00"}
{"Variant Descriptor": "chain 1 Y103D Y107N", "pKd": 5.90}
{"Variant Descriptor": "chain 1 D31H V37Q", "pKd": 8.89}
{"Variant Descriptor": "chain 1 M105C D106E", "pKd": "≤ 5.00"}
{"Variant Descriptor": "chain 1 Y103P W108Y", "pKd": "≤ 5.00"}
{"Variant Descriptor": "chain 1 M34L W36V", "pKd": "≤ 5.00"}
{"Variant Descriptor": "chain 1 S30N N35W", "pKd": "≤ 5.00"}
{"Variant Descriptor": "chain 1 Y32K V37R", "pKd": "≤ 5.00"}
{"Variant Descriptor": "chain 1 G104T Y107P", "pKd": "≤ 5.00"}
{"Variant Descriptor": "chain 1 T28W Y32W", "pKd": "≤ 5.00"}
{"Variant Descriptor": "chain 1 T28Y", "pKd": 8.49}
{"Variant Descriptor": "chain 1 D31C W33K", "pKd": 5.43}
{"Variant Descriptor": "chain 1 M34S W36Q", "pKd": "≤ 5.00"}
{"Variant Descriptor": "chain 1 S30K N35G", "pKd": 7.79}
{"Variant Descriptor": "chain 1 F29G W36M", "pKd": "≤ 5.00"}
{"Variant Descriptor": "chain 1 N35M", "pKd": "≤ 5.00"}
{"Variant Descriptor": "chain 1 N35K V37K", "pKd": 5.16}
{"Variant Descriptor": "chain 1 T28Y N35Y", "pKd": "≤ 5.00"}
{"Variant Descriptor": "chain 1 S101Y Y103G", "pKd": "≤ 5.00"}
{"Variant Descriptor": "chain 1 S30H D31H", "pKd": 8.76}
{"Variant Descriptor": "chain 1 M34W N35M", "pKd": "≤ 5.00"}
{"Variant Descriptor": "chain 1 F29S N35Y", "pKd": 6.49}
{"Variant Descriptor": "chain 1 Y103N G104P", "pKd": "≤ 5.00"}

Origin of the recorded values: the FLAb antibody collection (doi:10.7554/elife.23156)
